# Tested on: NCI/ADR-RES ovarian
# test summary: NCI tumour cell line growth inhibition, 48 h
assay endpoint: TGI

compound=O=c1/c(=C/c2ccc(-c3ccc(Cl)cc3Cl)o2)sc2n1[C@@H](c1ccc3c(c1)OCO3)C=C(c1cc(F)c(Cl)cc1Cl)N=2 assay_endpoint=TGI result="> 100 µM"
compound="Cc1ccc([N+](=O)[O-])cc1NC(=O)C(=O)C1CCC2=C(Sc3ccccc3N2)C1=O (configuration not stated)" assay_endpoint=TGI result="> 100 µM"
compound=Cn1c(=O)c2sc3cc4c(cc3c2c2ccccc21)sc1c(=O)n(C)c2ccccc2c14 assay_endpoint=TGI result="> 100 µM"
compound="Cc1nc2sc(C(=O)Nc3cccc(Cl)c3C)c(N)c2cc1C(C)O (configuration not stated)" assay_endpoint=TGI result="> 61.3 µM"
compound=CCCNc1cccc(-n2ncc3c(N/N=C/c4ccncc4)ncnc32)c1 assay_endpoint=TGI result="> 25 µM"
compound=COc1ccc(N2C(=O)/C(=C/c3ccc(N(CCC#N)CCC#N)cc3)N=C2c2ccccc2)c(OC)c1 assay_endpoint=TGI result="> 100 µM"
compound=O=C(Nc1ccccc1C(=O)Nc1nccs1)c1ccccc1 assay_endpoint=TGI result="> 100 µM"
